Would you mind telling me the reported IC50 of each entry?
# target-under-test: RORc ligand binding domain (Homo sapiens)
# Sequence (P51449 269-508 limits assumed): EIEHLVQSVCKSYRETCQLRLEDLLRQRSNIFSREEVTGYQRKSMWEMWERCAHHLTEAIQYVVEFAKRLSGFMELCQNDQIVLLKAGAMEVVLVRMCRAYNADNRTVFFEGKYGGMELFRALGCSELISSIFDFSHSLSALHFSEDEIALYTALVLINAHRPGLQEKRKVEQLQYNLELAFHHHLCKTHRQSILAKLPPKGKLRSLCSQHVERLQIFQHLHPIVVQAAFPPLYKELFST
Quick note: give the figure in nM, leave out the unit.

Quick note, IC50 for CC(C)CN(Cc1ccc(-c2cccc(S(C)(=O)=O)c2)cc1)S(=O)(=O)Cc1ccccc1 landed at 365

Quick note, IC50 for CC(C)CN(Cc1ccc(-c2cccc(S(C)(=O)=O)c2)s1)S(=O)(=O)Cc1ccccc1F landed at 1500

Quick note, IC50 for CC(C)CN(Cc1cccc(-c2cccc(S(C)(=O)=O)c2)c1)S(=O)(=O)Cc1ccccc1 landed at 3000

Quick note, IC50 for COCCN(Cc1ccc(-c2ccc(S(C)(=O)=O)cc2)s1)S(=O)(=O)Cc1ccccc1 landed at 5100

Quick note, IC50 for Cc1nn(C)c(C)c1S(=O)(=O)N(Cc1ccc(-c2cccc(S(C)(=O)=O)c2)s1)CC(C)C landed at 3600

Quick note, IC50 for CNS(=O)(=O)c1ccc(-c2ccc(CN(CC(C)C)S(=O)(=O)Cc3ccccc3)cc2)cc1 landed at 65

Quick note, IC50 for CC(C)CN(Cc1ccc(-c2ccc(S(C)(=O)=O)cc2)cn1)S(=O)(=O)Cc1ccccc1 landed at 2000

Quick note, IC50 for Cc1nn(C)c(C)c1-c1ccc(CN(CC(C)C)S(=O)(=O)Cc2ccccc2)cc1 landed at 1700

Quick note, IC50 for CC(C)N(Cc1ccc(-c2ccc(S(C)(=O)=O)cc2)s1)S(=O)(=O)Cc1ccccc1 landed at 195

Quick note, IC50 for CC(C)CN(Cc1ccc(-c2cccc(S(C)(=O)=O)c2)s1)S(=O)(=O)C1CCCC1 landed at 1800

Quick note, IC50 for CC(C)CN(Cc1ccc(-c2ccc(S(C)(=O)=O)cc2)cc1F)S(=O)(=O)Cc1ccccc1 landed at 19

Quick note, IC50 for CC(C)CN([C@@H](C)c1ccc(-c2ccc(NS(C)(=O)=O)cc2)cc1)S(=O)(=O)Cc1ccccc1 landed at 251

Quick note, IC50 for CC(C)CN(Cc1ccc(-c2cccc(S(C)(=O)=O)c2)s1)S(=O)(=O)Cc1cccc(F)c1 landed at 1300

Quick note, IC50 for CC(C)CN(Cc1ncc(-c2ccc(S(C)(=O)=O)c(F)c2)s1)S(=O)(=O)Cc1ccccc1 landed at 2000

Quick note, IC50 for CC(C)CN([C@@H](C)c1ccc(-c2ccc(C(N)=O)cc2)cc1)S(=O)(=O)Cc1ccccc1 landed at 154

Quick note, IC50 for CC(C)CN(Cc1ccc(-c2cc(F)c(CO)c(S(C)(=O)=O)c2)s1)S(=O)(=O)Cc1ccccc1 landed at 5000

Reference source: patent US20150105429A1
